# Test system: HCT-15 colon
# assay_method_text: NCI tumour cell line growth inhibition, 48 h
Listed next: entries and their corresponding GI50.

compound | recorded_endpoint | measurement
CC(=O)O[C@H]([C@H](OC(C)=O)[C@H](C)OC(C)=O)[C@@H](/C=C/[C@H]1CC=CC(=O)O1)OC(C)=O | GI50 | 44900 nM

In: Look up and state reported GI50 for `O=C1[C@H](Cc2ccc(O)cc2)N2C(=O)CCN(C(=O)NCc3ccccc3)[C@H]2CN1Cc1cccc2ccccc12`
Out: 15500 nM

In: Look up and state reported GI50 for `c1cc(OCCCCCOc2cccc(-c3nc4ccccc4[nH]3)c2)cc(-c2nc3ccccc3[nH]2)c1`
Out: 2710 nM

In: Look up and state reported GI50 for `COc1ccc(-c2c(Nc3ccccn3)nc3c(C4=CCCCC4)c(-c4ccccc4)[nH]n3c2=O)cc1`
Out: 1640 nM

In: Look up and state reported GI50 for `O=[N+]([O-])c1ccc(N/N=C\c2cc(Br)ccc2O)nc1`
Out: 437 nM

In: Look up and state reported GI50 for `C/C(=C\c1csc(C)n1)[C@@H]1C[C@@H]2O[C@]2(C)CCC[C@H](C)[C@H](O)[C@@H](C)C(=O)C(C)(C)[C@@H](O)CC(=O)N1`
Out: 0.152 nM

In: Look up and state reported GI50 for `COc1cc2c3c(n(CCCN)c(=O)c2cc1OC)-c1ccc(N)cc1C3=O`
Out: 24400 nM

The measurements presented in this section are drawn from PubChem BioAssay (NCI).
